Reference for the values: PubChem BioAssay (NCI)

system: SW-620 colon; test: NCI-60 one-dose screen, 48 h (100 = growth as untreated, 0 = no growth, -100 = all killed); details: 10 µM unless noted
About 83,000 compounds went through this panel and 20% of them were active in at least one assay; those are over-represented in the sample as a whole.
So I've got a bunch of compounds here, and I need their growth values.
Give bare numbers, in %.

| COMPOUND | growth [%] |
| --- | --- |
| COc1cc(C(=O)N/N=C/c2cc3cc(OCc4ccccc4)ccc3nc2OC)cc(OC)c1OC | 91.6 |

Batch request: growth per item, same order as input.
1. CCOc1ccc2nc(SCc3nc4n(n3)S(=O)(=O)c3ccccc3N4C)sc2c1
2. Brc1c[n+](Cc2ccc3ccccc3c2)cn1Cc1ccc2ccccc2c1
3. COc1ccc(/C=C/c2c(C(=O)/C=C/c3ccc(Cl)cc3)c(C)nc3ccccc23)cc1
4. CNc1nc2c(s1)C(c1cc(F)ccc1F)CC(=O)N2 (stereo unspecified)
5. CS(=O)(=O)N(c1cc(-c2ccc3ncnc(Nc4ccc(F)c(Cl)c4)c3c2)cnc1Cl)S(C)(=O)=O

1: 14; 2: 37.7; 3: -17; 4: 30.9; 5: 46.3

----------
tested on: M14 melanoma; experiment: NCI-60 one-dose screen, 48 h (100 = growth as untreated, 0 = no growth, -100 = all killed); details: 10 µM unless noted
This is part of a sample that, as a whole, favours compounds with a hit. Of some 83,000 tested, about 20% had one in any assay.
READOUT NAME: growth (%)
Give bare numbers, in %.

Worked examples follow.
| MOLECULE | growth / % |
| --- | --- |
| Cc1cccc2c3c(sc12)C(c1ccc(Cl)cc1)C(C#N)=C(/N=C/c1ccc(Cl)cc1)O3 (centres undefined) | 4.4 |
| Cc1cc(O)c(C2=NN(c3ccc(S(N)(=O)=O)cc3)C(/C=C/c3ccccc3)C2)cc1Cl (centres undefined) | 29.8 |
| COc1ccc(-c2cc3c4c(nc5ccccc5c4c2)CC(c2cc(OC)c(OC)c(OC)c2)O3)cc1 (centres undefined) | 57.5 |
| Cc1nn(-c2ccccc2)c2c1N=c1s/c(=C\c3ccc(C(F)(F)F)cc3)c(=O)n1CN2 | 69.4 |
| CN1CCN(c2ccc(-c3cnc4c(-c5csc6ccccc56)cnn4c3)cc2)CC1 | -71.8 |
| C/C=C(\C)C(=O)N[C@H]1[C@@H](OC(C)=O)C[C@]2(C)C3CC[C@@]4(C)C(CC[C@@H]4C(C)N(C)C)C3CCC2[C@H]1O (some centres undefined) | -32.7 |
| CC1Cc2ccccc2N1NC(=O)c1ccc(Cl)c(S(N)(=O)=O)c1 (centres undefined) | 98.2 |
| COc1cccc(-c2nc(-c3ccc(NS(=O)(=O)c4ccccc4)cc3)[nH]c2-c2ccnc(Br)c2)c1 | 27.1 |

Lab note: next molecule to report on.
GET /values?readout=growth&system=M14 melanoma&item= C=CCNc1ccc2c3c(cccc13)C(=O)N(N1C(=O)c3cccc4cccc(c34)C1=O)C2=O 102

----------
For each entry below, report its growth value.
system: NCI-H522 lung; assay: NCI-60 one-dose screen, 48 h (100 = growth as untreated, 0 = no growth, -100 = all killed); conditions: 10 µM unless noted
Compounds without any hit were thinned out: in the full panel of roughly 83,000, 20% have a hit.
Give bare numbers, in %.

# example entries with known answers
| MOLECULE | NUMERIC VALUE |
| --- | --- |
| O=C(Cc1ccc(F)c(Cl)c1)Nc1cc(C2(C(F)(F)F)CC2)nn1CC1CCCCC1 | -28.1 |
| CC(C)c1cc(C(C)C)c(S(=O)(=O)Oc2ccc(NC(=O)c3ccc(Cl)cc3)cc2)c(C(C)C)c1 | 7.91 |

Below are some molecules; for each one, tell me its growth.
1. COc1ccc(-c2cnc3ccccc3n2)cc1
2. Cc1ccc(C(=O)NCCNc2nccc(-c3c(-c4cccc(F)c4)nc4sccn34)n2)cc1
3. COc1c(C2CC(=O)Nc3c2c(C)nn3-c2nc3ccccc3[nH]2)cc2c(c1OC)OCO2 (centres undefined)

80.2
72.2
53.3

Please look at the items below and tell me growth for each one, in order.
1. O=c1c2cc(F)ccc2sc2c(NCCO)nc3ccccc3c12
2. Cc1cc2[nH]c(=O)c3c4ncccc4cn3c2cc1C
3. Cc1nc2ccccc2c(/C=C/c2ccccc2)c1C(=O)/C=C/c1ccc(C(F)(F)F)cc1
4. O=C(Nc1ccc(-c2nc(-c3cccc(OCCN4CCOCC4)c3)c(-c3ccnc(Br)c3)[nH]2)cc1)c1ccccc1

91.1
-23.7
-1.91
40.7

List growth for every entry below, keeping the order given.
1. CC(C)n1cnc2c(Nc3cccc(Cl)c3)nc(N[C@H]3CCCC[C@@H]3N)nc21
2. Cn1cc(C(=O)c2nc(-c3cn(C)c4ccc(F)cc34)no2)c2cc(F)ccc21
3. COc1cc(C(=O)c2cc(C)c3[nH]c4ccc(O)cc4c3c2C)cc(OC)c1OC

1. 38.7
2. 79.3
3. 33.7

# per-item lookup of growth; items listed below
1. Cc1ccc(C(=O)N/N=C/c2cccc(Oc3ccccc3)c2)cn1
2. COc1ccc(-c2[nH]ncc2-c2cc3c(c(OC)c2)OCC(=O)N3)cc1
3. COc1cc(CCC[P+](c2ccccc2)(c2ccccc2)c2ccccc2)c(OC)c(OC)c1OC
4. O=C(CCc1nnc(-c2c(Cl)cccc2Cl)o1)c1nc2ccccc2[nH]1
5. Cc1c(C(=O)NCCCc2ccccc2)sc2ncc(-c3ccc(Br)cc3)n12

31.5
-47.2
71.9
49.8
98.5

Hi team, please reply with growth for each item in this list.
1. COC(=O)/C=C1\S/C(=N\Nc2ccc([N+](=O)[O-])cc2[N+](=O)[O-])N(C2CCCCC2)C1=O
2. Cc1onc2c(-c3ccccc3)n[nH]c(=O)c12

43.6
94.4

Go through the list and state growth for each entry.
1. C=C1C(=O)O[C@H]2[C@H]1CC/C(COC(=O)CCSSCCC(=O)OC/C1=C/CC[C@@]3(C)O[C@H]3[C@H]3OC(=O)C(=C)[C@@H]3CC1)=C\CC[C@@]1(C)O[C@@H]21
2. C=C(C)C1CCC2(C)OC2C1 (centres undefined)
3. O=C1NC(=O)C(c2ccccc2)(c2ccccc2)N1Cc1cn(-c2c3ccccc3nc3ccccc23)nn1

-79.8
105
15.9

For every record below, what is its growth?
1. O=C1CCC/C=C\C[C@H]2C=CC(=O)/C2=C/C[C@H](CCc2cccc(C(F)(F)F)c2)O1
2. CCCCCCCNC(=O)CCCNc1ncnc2c1ncn2-c1cccc(C(C)O)c1 (centres undefined)
3. N#Cc1c(-c2ccccc2)nc(SCC(=O)Nc2nc(-c3ccc(Cl)cc3)cs2)[nH]c1=O
4. Cc1nc2ccccc2n1CC1C(=O)NC(=O)NC1=O
5. CC1=C(SCCC(=O)OC(C[Se]C2=C(C)C(=O)c3ccccc3C2=O)C(=O)NC(C)(C)C)C(=O)c2ccccc2C1=O (centres undefined)
6. CCCCN(C)N=Nc1ccc(C(N)=O)cc1
7. O=C(CCN1C(=O)/C(=C/c2ccc(O)cc2)SC1=S)Nc1ccccc1

1: -88.7; 2: 80.9; 3: 77.6; 4: 94.4; 5: -48.2; 6: 109; 7: 80.1

----------
Test system: SF-539 CNS
Assay: NCI-60 one-dose screen, 48 h (100 = growth as untreated, 0 = no growth, -100 = all killed)
Conditions: 10 µM unless noted
Protocol: Cells are grown in 96 well plates and exposed to the test compound for 48 hours. Compounds are tested at a single concentration, which is 10^-5 M for most compounds. The reported endpoint is percent growth (GI% or GIPRCNT), where numbers from 0 - 100% represent growth inhibition, and numbers from -100% - 0 represent cell death. For example, a value of 40 represents 60% growth inhibition. A value of 0 means no net growth occurred over the course of the experiment. […]
This is part of a sample that, as a whole, favours compounds with a hit. Of some 83,000 tested, about 20% had one in any assay.
Note: every record was labeled by where its growth sits among range 1: < -10%; range 2: ≥ -10% and < 90%; range 3: ≥ 90%

| MOLECULE | QUALITATIVE LABEL |
| --- | --- |
| COc1c(B(O)O)cc(F)cc1-c1nc2ccc3[nH]ncc3c2c2c1CCCC2 | range 1 |
| CCCCNc1nc(NN2C(=O)c3cccc4cccc(c34)C2=O)nc(-n2cnc3ccccc32)n1 | range 2 |
| CN(C)CC#Cc1ccc2ncc(C#N)c(Nc3ccc(F)c(Cl)c3)c2c1 | range 2 |

Class? Entry: COc1ccc(/C=C(/C#N)n2nnc3cccc(F)c32)cc1 range 1

Which growth band matches Cn1cc(-c2cc3ncnc(Nc4ccc(CC(=O)Nc5cc(C(C)(C)C)on5)cc4)c3s2)cn1 ? range 2

Kindly identify the class of COc1ccc(C2CC(c3ccc(Nc4nc(Nc5ccc(F)cc5)nc(Nc5ccc(Cl)cc5)n4)cc3)=NN2C(C)=O)cc1 (stereo not given) . range 3

Bin this entry: O=c1c2cc(C(F)(F)F)ccc2sc2c(NCCCNCCO)nc3ccccc3c12 range 1

Categorize the following entry: O=c1c2cc(F)ccc2sc2c(N3CCNCC3)nc3ccc(F)cc3c12 range 1

Input CC(C)(C)NC(=O)C(OC(=O)c1cccc(Cl)c1)c1ccc(Cl)cc1 (stereo not given) ; output its category range 3

Sort COc1ccc2c(c1)/C(=C/c1sc(=S)n(Cc3ccco3)c1O)C=N2 into one of the categories. range 2

Please classify: N#C/C(=C\c1cccc2cnccc12)n1nnc2cccc(F)c21 range 2

// return the class label for COc1ccc(OC)c(/C=C/C(=O)N/N=C/c2ccc(Cl)cc2)c1 range 1
